tested system: DNMT1 (Homo sapiens, UniProt P26358 P26358:1-1616)
Sequence (P26358 whole entry, one chain of several): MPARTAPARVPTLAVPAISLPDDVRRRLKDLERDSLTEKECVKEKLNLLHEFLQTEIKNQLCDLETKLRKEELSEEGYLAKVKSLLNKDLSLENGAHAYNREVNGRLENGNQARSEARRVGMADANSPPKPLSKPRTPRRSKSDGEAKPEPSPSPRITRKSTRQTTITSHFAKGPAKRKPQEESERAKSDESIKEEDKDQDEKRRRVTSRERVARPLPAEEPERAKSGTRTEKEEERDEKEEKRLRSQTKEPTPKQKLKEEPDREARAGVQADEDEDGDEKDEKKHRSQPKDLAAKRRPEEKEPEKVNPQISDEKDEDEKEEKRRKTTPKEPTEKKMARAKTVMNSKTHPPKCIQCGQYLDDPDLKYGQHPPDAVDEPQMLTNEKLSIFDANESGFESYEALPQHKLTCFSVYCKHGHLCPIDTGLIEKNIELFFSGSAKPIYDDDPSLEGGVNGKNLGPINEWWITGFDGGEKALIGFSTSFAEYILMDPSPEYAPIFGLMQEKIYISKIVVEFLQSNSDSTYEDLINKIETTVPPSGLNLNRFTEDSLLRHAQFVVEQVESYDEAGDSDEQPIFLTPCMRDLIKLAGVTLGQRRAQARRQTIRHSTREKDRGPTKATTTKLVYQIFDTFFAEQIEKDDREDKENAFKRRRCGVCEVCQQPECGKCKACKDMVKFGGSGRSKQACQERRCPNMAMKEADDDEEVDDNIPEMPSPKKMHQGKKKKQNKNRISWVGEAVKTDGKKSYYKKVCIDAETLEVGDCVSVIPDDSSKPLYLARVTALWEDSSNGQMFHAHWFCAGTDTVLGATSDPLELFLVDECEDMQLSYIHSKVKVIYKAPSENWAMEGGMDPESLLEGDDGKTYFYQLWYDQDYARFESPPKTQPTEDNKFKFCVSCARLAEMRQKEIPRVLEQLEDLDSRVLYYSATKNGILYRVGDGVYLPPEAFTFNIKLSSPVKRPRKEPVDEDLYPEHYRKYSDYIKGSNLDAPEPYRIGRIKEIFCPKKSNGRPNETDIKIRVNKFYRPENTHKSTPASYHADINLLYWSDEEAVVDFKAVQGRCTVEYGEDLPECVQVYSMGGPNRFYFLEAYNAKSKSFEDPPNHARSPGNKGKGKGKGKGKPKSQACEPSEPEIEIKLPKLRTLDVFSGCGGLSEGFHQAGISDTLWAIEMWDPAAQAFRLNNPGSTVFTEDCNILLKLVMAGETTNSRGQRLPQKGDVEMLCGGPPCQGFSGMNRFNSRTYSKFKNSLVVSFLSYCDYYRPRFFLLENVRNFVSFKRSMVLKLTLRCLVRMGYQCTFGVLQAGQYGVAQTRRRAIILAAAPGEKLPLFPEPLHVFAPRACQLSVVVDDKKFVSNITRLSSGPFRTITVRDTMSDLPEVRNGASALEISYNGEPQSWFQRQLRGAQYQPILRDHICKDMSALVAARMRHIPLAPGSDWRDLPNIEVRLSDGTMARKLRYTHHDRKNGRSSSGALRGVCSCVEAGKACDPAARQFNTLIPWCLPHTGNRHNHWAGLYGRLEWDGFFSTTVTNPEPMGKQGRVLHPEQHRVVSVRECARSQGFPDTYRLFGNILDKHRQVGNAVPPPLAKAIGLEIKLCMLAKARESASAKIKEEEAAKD
protocol details: inhibition; tritiated methyl incorporation from SAM
metric: pIC50
By convention, pIC50 is the negative base-10 log of a molar concentration.

Inquiry: Could you tell me which pIC50 is on file for MTC-429 (dsDNA, 5-aza-5,6-dihydro-dC at 8 of F strand; 5mC at 8 of R strand; phosphodiester [F strand: 8; R strand: 8]) DNA 1: GTACATGCGCTCCAGA DNA 2: TCTGGAGCGCATGTAC ?
Reply text: 6.04
